Molecular target: HMG-CoA synthase (Rattus norvegicus)
Construct: The livers from male Charles River CD rats (225-350 g) were homogenized; from tissue; host or cells: rat liver (male Charles River CD rats), 100,000 x g supernatant, ammonium sulfate and DEAE-52 fraction
Sequence (P17425 1-520): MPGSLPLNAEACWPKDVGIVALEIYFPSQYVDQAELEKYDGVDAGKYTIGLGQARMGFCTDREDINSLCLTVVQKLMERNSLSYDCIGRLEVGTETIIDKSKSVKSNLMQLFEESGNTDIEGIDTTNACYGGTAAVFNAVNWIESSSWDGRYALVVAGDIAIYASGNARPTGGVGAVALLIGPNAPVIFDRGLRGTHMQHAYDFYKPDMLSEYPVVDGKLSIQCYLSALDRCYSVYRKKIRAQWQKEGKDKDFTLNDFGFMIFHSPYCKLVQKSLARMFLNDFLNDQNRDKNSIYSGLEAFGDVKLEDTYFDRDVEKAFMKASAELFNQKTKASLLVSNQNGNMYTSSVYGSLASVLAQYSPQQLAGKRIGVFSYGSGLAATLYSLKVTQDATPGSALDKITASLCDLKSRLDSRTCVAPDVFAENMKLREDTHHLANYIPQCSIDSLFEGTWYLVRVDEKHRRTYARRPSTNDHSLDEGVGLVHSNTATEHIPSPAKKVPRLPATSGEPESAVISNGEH
Assay: HMG-CoA Synthase Inhibition Assay
Assay type: biochemical
Details: Table IV; rat liver enzyme, 1-[14C]-acetyl-CoA incorporation
Simple rule here: IC50 less than 2000 nM is 1 (yes), otherwise 0 (no).

Cc1ccc(S(=O)(=O)N2C(=O)[C@H](CO)[C@@H]2C=Cc2ccccc2)cc1 (relative stereo) = 1 (yes)
CC[C@@H]1C(=O)N(S(=O)(=O)c2ccc(C)cc2)[C@H]1C(C)=Cc1ccccc1 (relative stereo) = 0 (no)
CC[C@@H]1C(=O)N(S(=O)(=O)c2ccc(C)cc2)[C@@H]1C(C)=Cc1ccccc1 (relative stereo) = 1 (yes)
Cc1ccc(S(=O)(=O)N2C(=O)[C@H](CO)[C@H]2C=Cc2ccccc2)cc1 (relative stereo) = 1 (yes)
CCC[C@H]1C(=O)N(S(=O)(=O)c2ccc(C)cc2)[C@H]1C=Cc1ccccc1 (relative stereo) = 0 (no)

# next compound below
Exam item: Dear colleague, could you confirm whether IC50 of CCC[C@H]1C(=O)N(S(=O)(=O)c2ccc(C)cc2)[C@@H]1C=Cc1ccccc1 (relative stereo) falls below 2000 nM? Thanks.
Marked response: 1 (yes)

====

target: HMG-CoA synthase (Rattus norvegicus, UniProt P17425); construct: The livers from male Charles River CD rats (225-350 g) were homogenized; from tissue; host or cells: rat liver (male Charles River CD rats), 100,000 x g supernatant, ammonium sulfate and DEAE-52 fraction; assay: HMG-CoA Synthase Inhibition Assay; assay type: biochemical; details: Table III; rat liver enzyme, 1-[14C]-acetyl-CoA incorporation
readout.name: IC50 (nM)
Dear colleague, please return just the value in nM, with no unit written.

Exam item: Param readout= IC50; system= HMG-CoA synthase (Rattus norvegicus, UniProt P17425); entry= CC[C@H]1C(=O)N(S(=O)(=O)c2ccc(C)cc2)[C@H]1COS(=O)(=O)c1ccc(C)cc1 (relative stereo) [Table III] ; returns value.
Marked response: 110

====

target: HMG-CoA synthase (Rattus norvegicus); construct: The livers from male Charles River CD rats (225-350 g) were homogenized; from tissue; host or cells: rat liver (male Charles River CD rats), 100,000 x g supernatant, ammonium sulfate and DEAE-52 fraction; assay: HMG-CoA Synthase Inhibition Assay; type: biochemical; conditions: Table II; rat liver enzyme, 1-[14C]-acetyl-CoA incorporation
readout.name: pIC50
Lab note — pIC50 values are minus log10 of concentrations in M.

Solved cases below.
CC[C@@H]1C(=O)N(S(=O)(=O)c2ccc(C)cc2)[C@@H]1COC(=O)/C=C/c1ccc(OC)cc1 (relative stereo) [Table II a] = 8.02
CC[C@H]1C(=O)N(S(=O)(=O)c2ccc(C)cc2)[C@H]1COC(=O)Nc1ccc(C)cc1 (relative stereo) = 7.28
CC[C@@H]1C(=O)N(S(=O)(=O)c2ccc(C)cc2)[C@@H]1COC(=O)/C=C/c1cccnc1 (relative stereo) = 7.51
CC[C@@H]1C(=O)N(S(=O)(=O)c2ccc(C)cc2)[C@@H]1COC(=O)COc1ccccc1 (relative stereo) = 7.62
CC[C@H]1C(=O)N(S(=O)(=O)c2ccc(C)cc2)[C@H]1COC(=O)/C=C/c1ccc(OC)c(OC)n1 (relative stereo) = 7.57
CCCOc1c(Br)cc(/C=C/C(=O)OC[C@@H]2[C@H](CC)C(=O)N2S(=O)(=O)c2ccc(C)cc2)cc1OC (relative stereo) = 7.05
CC[C@H]1C(=O)N(S(=O)(=O)c2ccc(C)cc2)[C@H]1COC(=O)/C=C/c1cc(OC)c(OC)c(OC)c1 (relative stereo) = 7.42

We now examine a further compound.
Exam item: What value of pIC50 has been reported for the following compound? `CO[C@H](C(=O)OC[C@@H]1CC(=O)N1S(=O)(=O)c1ccc(C)cc1)c1ccccc1`
Marked response: 7.38
